The values you see were collected from ChEMBL document CHEMBL4480435.

- Subject Of Test: Tyrosine-protein kinase JAK1 (Homo sapiens, UniProt P23458)
- Sequence (P23458 whole entry): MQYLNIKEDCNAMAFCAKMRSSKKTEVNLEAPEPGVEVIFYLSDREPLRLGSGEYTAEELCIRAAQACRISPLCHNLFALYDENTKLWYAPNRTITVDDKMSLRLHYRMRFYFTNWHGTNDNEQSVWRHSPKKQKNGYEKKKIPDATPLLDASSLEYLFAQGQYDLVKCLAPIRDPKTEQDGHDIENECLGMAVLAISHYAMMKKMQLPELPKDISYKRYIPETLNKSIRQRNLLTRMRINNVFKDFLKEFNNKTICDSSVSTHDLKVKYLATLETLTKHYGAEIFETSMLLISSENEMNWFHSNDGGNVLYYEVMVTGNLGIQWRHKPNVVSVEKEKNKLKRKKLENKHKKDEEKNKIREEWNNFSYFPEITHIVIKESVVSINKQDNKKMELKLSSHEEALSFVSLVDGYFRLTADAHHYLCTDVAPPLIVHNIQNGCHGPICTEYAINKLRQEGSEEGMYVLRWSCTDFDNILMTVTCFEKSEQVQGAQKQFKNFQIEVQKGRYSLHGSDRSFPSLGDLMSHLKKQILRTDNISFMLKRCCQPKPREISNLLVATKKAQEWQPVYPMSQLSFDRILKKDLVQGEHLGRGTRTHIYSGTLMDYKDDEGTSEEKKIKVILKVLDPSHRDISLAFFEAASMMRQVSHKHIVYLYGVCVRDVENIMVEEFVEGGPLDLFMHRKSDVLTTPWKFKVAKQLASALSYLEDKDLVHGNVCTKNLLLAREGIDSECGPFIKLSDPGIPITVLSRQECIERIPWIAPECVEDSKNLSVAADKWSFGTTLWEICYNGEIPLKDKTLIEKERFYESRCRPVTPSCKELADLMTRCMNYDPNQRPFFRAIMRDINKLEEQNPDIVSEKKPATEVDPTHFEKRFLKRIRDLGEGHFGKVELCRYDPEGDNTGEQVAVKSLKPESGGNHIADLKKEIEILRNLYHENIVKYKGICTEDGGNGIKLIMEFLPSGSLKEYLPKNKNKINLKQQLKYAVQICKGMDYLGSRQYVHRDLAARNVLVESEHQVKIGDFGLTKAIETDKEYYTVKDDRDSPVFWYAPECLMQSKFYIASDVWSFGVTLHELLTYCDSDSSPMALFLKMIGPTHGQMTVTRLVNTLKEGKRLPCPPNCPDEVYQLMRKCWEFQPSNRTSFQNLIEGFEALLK
- Test Method Notes: Inhibition of JAK1 (unknown origin) after 1 hr by FRET-based Z'-Lyte assay
Measurement Label: IC50 (µM)

chemical_string=Nc1n[nH]c2ccc(NC(=O)c3ccccc3)cc12 measurement_label=IC50 numeric_result=10.5
chemical_string=Nc1n[nH]c2ccc(C(=O)Nc3cc(Cl)ccc3Cl)cc12 measurement_label=IC50 numeric_result=0.414
chemical_string=Nc1n[nH]c2ccc(C(=O)Nc3ccccc3Cl)cc12 measurement_label=IC50 numeric_result=2.27
chemical_string=Nc1n[nH]c2ccc(NC(=O)c3cc(Cl)ccc3Cl)cc12 measurement_label=IC50 numeric_result=0.151
chemical_string=c1ccc(-n2cnnn2)c(-c2cc(-c3ccc4[nH]ncc4c3)on2)c1 measurement_label=IC50 numeric_result=3.3
chemical_string=c1ccc(-n2cnnn2)c(-c2nc(-c3ccc4[nH]ncc4c3)cs2)c1 measurement_label=IC50 numeric_result=7.94
chemical_string=O=C(Nc1ccc2[nH]ncc2c1)c1ccccc1-n1cnnn1 measurement_label=IC50 numeric_result=33
chemical_string=Nc1n[nH]c2ccc(C(=O)Nc3c(Cl)cccc3Cl)cc12 measurement_label=IC50 numeric_result=0.46
chemical_string=c1ccc(-n2cnnn2)c(-c2cn(-c3ccc4[nH]ncc4c3)nn2)c1 measurement_label=IC50 numeric_result=8.8
chemical_string=Nc1n[nH]c2ccc(NC(=O)c3ccccc3Cl)cc12 measurement_label=IC50 numeric_result=1.82

a: CCNc1ccccc1C(=O)Nc1ccc2[nH]ncc2c1
b: Nc1n[nH]c2ccc(-c3cnc(-c4ccccc4-n4cnnn4)s3)cc12
*Q* Lab note: record which item had the higher IC50, a or b . Select an item and report its label.
*A* a
(a: 24.1 µM, b: 9.29 µM)
